Reported Activity values follow for various compounds
- System: Lactuca sativa
- protocol_details: Stimulation of germination of Lactuca sativa cv. Roman (lettuce) at 0.1 mM or 1 mM after 5 days relative to untreated control
- Type: functional

- C=C1[C@@H]2[C@H]3OC(=O)[C@@H](CO)[C@@H]3CCC(=C)[C@@H]2C[C@H]1O: <20%
- COc1nc(C)nc(NC(=O)NS(=O)(=O)c2ccccc2OCCCl)n1 [LOGRAN]: >40%

Memo: `C=C1CC[C@H]2C(=C)CC[C@@H]3[C@H](OC(=O)[C@H]3CO)[C@@H]12` , reported Activity: <20%

###

- Tested on: Lactuca sativa
- protocol_details: Inhibition of hypocotyl length of Lactuca sativa cv. Roman (lettuce) at 0.1 mM or 1 mM after 5 days relative to untreated control
- Assay type: functional
Reported inhibition (INH) values follow for various compounds

Example entries and their recorded answers appear below.
* C=C1[C@@H]2[C@H]3OC(=O)C(=C)[C@@H]3CCC(=C)[C@@H]2C[C@H]1O | <20%
* C=C1CC[C@H]2[C@H](C)C(=O)O[C@@H]2[C@@]2(O)C(=C)[C@H](O)C[C@@]12O | >40%
* C=C1CC[C@H]2C(=C)CC[C@@H]3[C@H](OC(=O)[C@]3(O)CO)[C@@H]12 | <20%

Consider the record given below.
# value of inhibition (INH), Lactuca sativa, item `C=C1CC[C@H]2[C@H](CO)C(=O)O[C@@H]2[C@@]2(O)C(=C)[C@H](O)C[C@@H]12` = >40%
